Source of measurements: patent US8268842B2

Measurement label: melting point

Consider the worked cases shown below.
{"columns": ["Structure", "Measurement label", "Value"],
 "data": [
  ["COc1ccc2nc(C)n(-c3ccc(OCCCN4CCC[C@H]4C)cc3)c(=O)c2c1", "melting point", "106 to 108 °C"],
  ["COc1cccc2nc(C)n(-c3ccc(OCCCN4CCC[C@H](C)C4)cc3)c(=O)c12", "melting point", "144 to 146 °C"],
  ["COc1ccc2nc(C)n(-c3ccc(OCCCN4CCC[C@@H]4C)cc3)c(=O)c2c1", "melting point", "102 to 106 °C"],
  ["CCc1nc2ncccc2c(=O)n1-c1ccc(OCCCN2CCC[C@H](C)C2)cc1.Cl", "melting point", "245 to 252 °C"],
  ["COc1ccc2nc(C)n(-c3ccc(OCCCN4CCCCC4)cc3)c(=O)c2c1", "melting point", "136 to 138 °C"]
]}

Let us move to another entry and its melting point.
Problem: Request the reported melting point associated with COc1cc2c(=O)n(-c3ccc(OCCCN4CCCCC4)cc3)c(C)nc2cn1
Result: 145 to 147 °C
